Target entity: FXR (Homo sapiens (Human))
Method notes: transient human FXR/Gal4-luciferase reporter assay
Assay type: cell-based
Condition parameters: Gal4-hFXR LBD fusion in HEK293 reporter cells; relative to 8 μM GW-4064
Attribute measured: log10 of EC50 (log10 of the value in µM)
Could you please treat all values as log10 of EC50 in µM?

Find the recorded log10 of EC50 belonging to O=C(O)c1cc(/C=C/C23CCC(OCc4c(-c5c(Cl)cncc5Cl)noc4C4CC4)(CC2)CC3)ccn1 and report it.
-0.06

Find the recorded log10 of EC50 belonging to COCCCOc1nc(C(=O)O)cc2ccc(/C=C/C34CCC(OCc5c(-c6c(Cl)cncc6Cl)noc5C5CC5)(CC3)CC4)cc12 and report it.
-1.74

Find the recorded log10 of EC50 belonging to O=C(O)c1cc2ccc(/C=C/C34CCC(OCc5c(-c6c(Cl)cncc6Cl)noc5C5CC5)(CC3)CC4)cc2c(OC2CCC2)n1 and report it.
-0.53

Find the recorded log10 of EC50 belonging to O=C(O)c1cc(OCC23CCC(OCc4c(-c5c(Cl)cncc5Cl)noc4C4CC4)(CC2)CC3)nn1CC1CC1 and report it.
-1.80

Find the recorded log10 of EC50 belonging to O=C(O)c1cc2ccc(Cl)cc2c(C#CC23CCC(OCc4c(-c5c(Cl)cncc5Cl)noc4C4CC4)(CC2)CC3)n1 and report it.
-0.60

Find the recorded log10 of EC50 belonging to CN1CCN(c2nc(C(=O)O)cc3ccc(/C=C/C45CCC(OCc6c(-c7c(Cl)cncc7Cl)noc6C6CC6)(CC4)CC5)cc23)CC1 and report it.
-1.46

###

Target entity: FXR (Homo sapiens (Human))
Method notes: FXR EC50 (FXR agonist activity reported with each example)
Format: cell-based
Attribute measured: pEC50
Field pEC50 (float): negative decimal logarithm of the concentration in molar.

Find the recorded pEC50 belonging to O=C(O)c1cccc2nc(OCC34CCC(OCc5c(-c6c(Cl)cncc6Cl)noc5C5CC5)(CC3)CC4)ccc12 [Example 343] and report it.
7.12

Find the recorded pEC50 belonging to NC(=O)c1cc(F)c2nc(C(O)C34CCC(OCc5c(-c6c(Cl)cccc6Cl)noc5C5CC5)(CC3)CC4)sc2c1 (centres unmarked) [Example 123] and report it.
6.55

Find the recorded pEC50 belonging to O=C(O)c1cccc(-c2noc(C34CCC(/C=C/c5c(-c6c(Cl)cncc6Cl)noc5C5CC5)(CC3)CC4)n2)c1 [Example 504] and report it.
7.48

Find the recorded pEC50 belonging to Cn1nc(OCC23CCC(OCc4c(-c5c(Cl)cncc5Cl)noc4C4CC4)(CC2)CC3)cc1C(=O)O [Example 315] and report it.
6.47

Find the recorded pEC50 belonging to O=C(O)c1cn2ccc(C#CC34CCC(OCc5c(-c6c(Cl)cncc6Cl)noc5C5CC5)(CC3)CC4)cc2n1 [Example 394] and report it.
6.74

Find the recorded pEC50 belonging to CCOc1cc(C(=O)O)nc2cc(F)c(OCC34CCC(OCc5c(-c6c(Cl)cncc6Cl)noc5C5CC5)(CC3)CC4)cc12 [Example 313] and report it.
7.32

Find the recorded pEC50 belonging to COc1ccc(-c2noc(C34CCC(OCc5c(-c6c(Cl)cncc6Cl)noc5C5CC5)(CC3)CO4)n2)cc1C(=O)O [Example 455] and report it.
6.54

Find the recorded pEC50 belonging to O=C(O)c1cccc(OCC23CCC(OCc4c(-c5c(Cl)cccc5Cl)noc4C4CC4)(CC2)CC3)n1 [Example 110] and report it.
7.28

Find the recorded pEC50 belonging to COc1ccc(-c2noc(C34CCC(OCc5c(-c6ccccc6C(F)(F)F)noc5C5CC5)(CC3)CC4)n2)cc1C(=O)O [Example 31] and report it.
6.43

Find the recorded pEC50 belonging to CC(C)(C(=O)O)c1ccc(C23CCC(/C=C/c4c(-c5ccccc5C(F)(F)F)noc4C4CC4)(CC2)CO3)cc1 [Example 477] and report it.
5.82

Find the recorded pEC50 belonging to NC(=O)C12CCC(COCc3c(-c4c(Cl)cccc4Cl)noc3C3CC3)(CC1)CC2 [Intermediate 162C] and report it.
6.74

###

Target entity: FXR (Homo sapiens (Human))
Method notes: FXR EC50 (FXR agonist activity reported with each example)
Assay type: cell-based
Could you please report measured EC50 for the items listed next?
Response body: numeric value in nM, unit text excluded.

Find the recorded EC50 belonging to O=C(O)c1ccc(C23CCC(/C=C/c4c(-c5c(Cl)cccc5Cl)noc4C4CC4)(CC2)CO3)cc1 [Example 194] and report it.
34

Find the recorded EC50 belonging to Clc1cccc(Cl)c1-c1noc(C2CC2)c1COC12CCC(c3nc(-c4nn[nH]n4)no3)(CC1)CC2 [Example 267] and report it.
4400

Find the recorded EC50 belonging to O=C(O)c1cnn(CC23CCC(OCc4c(-c5c(Cl)cccc5Cl)noc4C4CC4)(CC2)CC3)c1 [Example 76] and report it.
290

Find the recorded EC50 belonging to Cc1cc(OCC23CCC(OCc4c(-c5c(Cl)cncc5Cl)noc4C4CC4)(CC2)CC3)cnc1C(=O)O [Example 348] and report it.
59

Find the recorded EC50 belonging to COc1cc(Cl)c2nc(C34CCC(OCc5c(-c6c(Cl)cncc6Cl)noc5C5CC5)(CC3)CC4)ccc2c1C(=O)O [Example 426] and report it.
12

Find the recorded EC50 belonging to O=C(O)c1cc(C#CC23CCC(OCc4c(-c5c(Cl)cncc5Cl)noc4C4CC4)(CC2)CC3)cn2ccnc12 [Example 404] and report it.
140

Find the recorded EC50 belonging to Cn1nc(-c2nc(C34CCC(OCc5c(-c6c(Cl)cccc6Cl)noc5C5CC5)(CC3)CC4)no2)cc1C(=O)O [Example 70] and report it.
430

Find the recorded EC50 belonging to COC(=O)c1cccc(-c2noc(C34CCC(OCc5c(-c6ccccc6C(F)(F)F)noc5C5CC5)(CC3)CC4)n2)c1 [Example 36] and report it.
3500

Find the recorded EC50 belonging to O=C(O)c1cc(-c2noc(C34CCC(OCc5c(-c6c(Cl)cncc6Cl)noc5C5CC5)(CC3)CC4)n2)cc(C(F)(F)F)c1 [Example 235] and report it.
25

Find the recorded EC50 belonging to O=C(O)c1ccc(C23CCC(CNc4c(-c5c(Cl)cccc5Cl)noc4C4CC4)(CC2)CO3)cc1 [Example 203] and report it.
420

Find the recorded EC50 belonging to O=C(O)c1cccc2nc(C34CCC(OCc5c(-c6c(Cl)cncc6Cl)noc5C5CC5)(CC3)CC4)sc12 [Example 432] and report it.
23

Find the recorded EC50 belonging to O=C(O)c1cccc(-c2noc(C34CCC(OCc5c(-c6c(Cl)cncc6Cl)noc5C5CC5)(CC3)CC4)n2)c1F [Example 71] and report it.
69

Find the recorded EC50 belonging to O=C(O)c1ccc2cc(C(O)C34CCC(OCc5c(-c6c(Cl)cccc6Cl)noc5C5CC5)(CC3)CC4)ccc2c1 (centres unmarked) [Example 126] and report it.
600

Find the recorded EC50 belonging to CC(C)Oc1cc(-c2noc(C34CCC(OCc5c(-c6c(Cl)cncc6Cl)noc5C5CC5)(CC3)CC4)n2)cc(C(=O)O)n1 [Example 258] and report it.
8

###

Target entity: FXR (Homo sapiens (Human), UniProt Q96RI1)
Sequence (Q96RI1 262-486): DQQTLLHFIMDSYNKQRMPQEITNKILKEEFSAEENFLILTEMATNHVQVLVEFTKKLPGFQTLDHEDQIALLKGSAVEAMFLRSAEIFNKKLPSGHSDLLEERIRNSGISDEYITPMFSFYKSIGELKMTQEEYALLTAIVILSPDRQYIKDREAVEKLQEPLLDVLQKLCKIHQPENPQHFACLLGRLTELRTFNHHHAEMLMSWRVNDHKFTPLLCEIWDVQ
Method notes: FXR EC50 (FXR agonist activity reported with each example)
Assay type: cell-based
Attribute measured: pEC50
Field pEC50 (float): negative decimal logarithm of the concentration in molar.

Find the recorded pEC50 belonging to O=C(O)c1cncc(-c2noc(C34CCC(OCc5c(-c6ccccc6OC(F)(F)F)noc5C5CC5)(CC3)CC4)n2)c1 [Example 44] and report it.
6.06

Find the recorded pEC50 belonging to CC(C)COc1cc(C(=O)O)nc2ccc(OCC34CCC(OCc5c(-c6c(Cl)cncc6Cl)noc5C5CC5)(CC3)CC4)cc12 [Example 355] and report it.
7.74

Find the recorded pEC50 belonging to O=C(O)c1cc(OCC23CCC(/C=C/c4c(-c5c(Cl)cncc5Cl)noc4C4CC4)(CC2)CO3)cc(C(F)(F)F)c1 [Example 468] and report it.
7.15

Find the recorded pEC50 belonging to O=C(O)c1cc(OCC(CO)CCl)c2cc(OCC34CCC(OCc5c(-c6c(Cl)cncc6Cl)noc5C5CC5)(CC3)CC4)ccc2n1 (centres unmarked) [Example 356] and report it.
6.96

Find the recorded pEC50 belonging to COc1ccc(-c2noc(C34CCC(/C=C/c5c(-c6c(Cl)cncc6Cl)noc5C5CC5)(CC3)OC4)n2)cc1C(=O)O [Example 496] and report it.
6.00

Find the recorded pEC50 belonging to O=C(O)c1cncc(-c2noc(C34CCC(OCc5c(-c6ccccc6C(F)(F)F)noc5C5CC5)(CC3)CC4)n2)c1 [Example 11] and report it.
5.54

Find the recorded pEC50 belonging to O=C(O)c1cc(-c2noc(C34CCC(OCc5c(-c6ccccc6C(F)(F)F)noc5C5CC5)(CC3)CC4)n2)ccn1 [Example 50] and report it.
5.68

Find the recorded pEC50 belonging to O=C(O)c1ccnc(C23CCC(OCc4c(-c5c(Cl)cccc5Cl)noc4C4CC4)(CC2)CC3)c1 [Example 137] and report it.
6.38

Find the recorded pEC50 belonging to O=C(O)c1cc(OC(F)F)cc(-c2noc(C34CCC(/C=C/c5c(-c6c(Cl)cncc6Cl)noc5C5CC5)(CC3)CO4)n2)c1 [Example 479] and report it.
6.44

Find the recorded pEC50 belonging to O=C(O)c1ncc(OCC23CCC(OCc4c(-c5c(Cl)cncc5Cl)noc4C4CC4)(CC2)CC3)cc1OCC(F)(F)F [Example 300] and report it.
7.24

Find the recorded pEC50 belonging to O=C(O)c1ncc(OCC23CCC(OCc4c(-c5c(Cl)cncc5Cl)noc4C4CC4)(CC2)CC3)cc1C(F)(F)F [Example 285] and report it.
6.89

Find the recorded pEC50 belonging to O=C(O)c1cccc(/C=C/C23CCC(COCc4c(-c5c(Cl)cccc5Cl)noc4C4CC4)(CC2)CO3)c1 [Example 200] and report it.
6.66

Find the recorded pEC50 belonging to O=C(O)c1ccnc(C#CC23CCC(OCc4c(-c5c(Cl)cccc5Cl)noc4C4CC4)(CC2)CC3)c1 [Example 132] and report it.
5.46

Find the recorded pEC50 belonging to O=C(O)c1cccc(NC(=O)C23CCC(C=Cc4c(-c5c(Cl)cccc5Cl)noc4C4CC4)(CC2)C3)c1 [Example 230] and report it.
6.05
